- Measurement target: DNA topoisomerase 1 (Homo sapiens) (UniProt P11387)
- Sequence (P11387 whole entry): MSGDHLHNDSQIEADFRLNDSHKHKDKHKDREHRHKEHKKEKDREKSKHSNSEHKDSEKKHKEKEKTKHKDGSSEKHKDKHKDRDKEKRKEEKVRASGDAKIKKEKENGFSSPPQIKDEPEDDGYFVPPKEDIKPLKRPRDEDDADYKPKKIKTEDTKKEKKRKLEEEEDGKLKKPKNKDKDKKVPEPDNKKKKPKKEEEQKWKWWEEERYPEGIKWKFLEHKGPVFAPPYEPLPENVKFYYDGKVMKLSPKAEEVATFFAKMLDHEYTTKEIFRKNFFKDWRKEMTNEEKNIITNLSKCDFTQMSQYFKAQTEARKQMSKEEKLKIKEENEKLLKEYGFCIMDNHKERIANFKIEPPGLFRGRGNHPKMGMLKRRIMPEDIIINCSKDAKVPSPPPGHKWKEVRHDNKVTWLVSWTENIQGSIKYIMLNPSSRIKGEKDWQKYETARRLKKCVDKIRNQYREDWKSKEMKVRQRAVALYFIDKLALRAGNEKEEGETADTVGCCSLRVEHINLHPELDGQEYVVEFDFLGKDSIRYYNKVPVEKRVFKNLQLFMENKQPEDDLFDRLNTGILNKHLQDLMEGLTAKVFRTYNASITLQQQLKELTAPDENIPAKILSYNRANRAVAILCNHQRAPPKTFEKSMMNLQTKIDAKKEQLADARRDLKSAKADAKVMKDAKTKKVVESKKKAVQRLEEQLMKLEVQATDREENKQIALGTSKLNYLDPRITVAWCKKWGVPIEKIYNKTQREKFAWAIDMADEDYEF
- Procedure summary: Inhibition of recombinant TOP1 (unknown origin) at 1 uM using 3'-[32P]-labeled 117 bp DNA oligonucleotides as substrate incubated for 20 mins by PAGE analysis relative to CPT
Activity calls are given as the source filed them. The rule behind the calls is not given here.
Endpoint: inhibition

Solved cases (5 shown):
COc1cc2c(cc1O)c(=O)n(CCN(C)C)c1c3cc4c(cc3ccc21)OCO4; 20%
CN(C)CCn1c(=O)c2ccccc2c2ccc3cc4c(cc3c21)OCO4; 20%
COc1cccc2c(=O)n(CCN(C)C)c3c4ccccc4ccc3c12; inactive
COc1ccc2c(=O)n(CCN(C)C)c3c4cc5c(cc4ccc3c2c1)OCO5; 75%
COc1cc2c(ccc3c4cc(OC)c(OC)cc4c(=O)n(CCN(C)C)c23)cc1O; 20%

The compound COc1cc2ccc3c4cc(OC)c(OC)cc4c(=O)n(CCN(C)C)c3c2cc1OC showed inhibition equal to < 20%

The compound COc1cc2ccc3c4cc(OC)c(OC)cc4c(=O)n(CCN(C)C)c3c2cc1O showed inhibition equal to < 20%

The compound COc1cc2ccc3c4ccc5c(c4c(=O)n(CCN(C)C)c3c2cc1OC)OCO5 showed inhibition equal to 20%

The compound CN(C)CCn1c(=O)c2ccc(Cl)cc2c2ccc3cc4c(cc3c21)OCO4 showed inhibition equal to 75%

The compound COc1cc2c(=O)n(CCN(C)C)c3c4cc(O)c(O)cc4ccc3c2cc1OC showed inhibition equal to 50%

The compound CN(C)CCn1c(=O)c2cc(F)ccc2c2ccc3cc4c(cc3c21)OCO4 showed inhibition equal to 75%
